- assay.system: T1, S100A5 (human, UniProt P33763 1-92)
- T1 chain: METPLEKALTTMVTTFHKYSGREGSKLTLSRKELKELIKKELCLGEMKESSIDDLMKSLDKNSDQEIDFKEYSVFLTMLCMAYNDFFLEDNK
- procedure.summary: FP; competition against fWL
assay.endpoint: Kd (µM)
Write the value in µM as a bare number.

// query Looking for the measured Kd of TRTKIDWNKILS [TRTK12 peptide] , can you help?
// result 4.9
